Target: HLA-A*02:01
Experiment: IEDB peptide-MHC binding, purified MHC/direct/fluorescence; filed as Kd, often an IC50 or EC50 that approximates it; bounds were set here for any values at or beyond the usual limits of such assays
Conditions: source organism: Sudan ebolavirus - Maleo (1979)
pKd: −log10 of the molar value.
Measurement name: pKd

### Prompt Return reported pKd; argument: `MHYKLDEVL`
### Response ≤ 4.70

* * *

Target: HLA-B*07:02
Test: IEDB peptide-MHC binding, purified MHC/direct/fluorescence; filed as Kd, often an IC50 or EC50 that approximates it; bounds were set here for any values at or beyond the usual limits of such assays
Conditions: source organism: Bacillus anthracis
Measurement name: Kd

### Prompt Can you look up Kd on HLA-B*07:02 for `KLYVNGKAY` ?
### Response ≥ 20 µM
